- System: TAOK2;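 note: KINOMEscan kinase panel screen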
- recorded-conditions: concentration: 1 μM, replicates: in singlicate; n = 1

| compound | %Inh (%) |
| --- | --- |
| Fc1cc(Cl)ccc1Nc1ccnc2cc(-c3ccc(CN4CCOCC4)o3)ccc12 | 0 |
| Cc1ccc(NC(=O)c2ccnc(N3CCCCC3)c2)cc1-c1ccc(C(=O)NCC2CC2)cc1 | 0 |
| Cc1ccccc1CC(=O)N1CCc2cc(-c3cn(C)c4ncnc(N)c34)ccc21 | 0 |
| Cl.N#CCc1ccc(Nc2nccc(Nc3ccc(Oc4ccccc4)cc3)n2)cc1 | 7 |
| CN1CCN(Cc2ccc(NC(=O)Nc3ccc(N(C)c4ccnc(Nc5ccc(CS(C)(=O)=O)cc5)n4)cc3)cc2)CC1.Cl | 0 |
| Nc1ncc(-c2cn[nH]c2)c2scc(-c3ccc4c(c3)CCN4C(=O)Cc3ccccc3)c12 | 0 |
| NCCC(NC(=O)c1cc(Br)c(-c2ccnc3[nH]ccc23)s1)c1ccccc1.O=C(O)C(F)(F)F.O=C(O)C(F)(F)F (centres unmarked) | 10 |
| O=C(Nc1n[nH]c2nc(-c3ccccc3)ccc12)C1CC1 | 0 |
| COC(=O)Nc1nc2ccc(Oc3ccc(NC(=O)Nc4cc(C(F)(F)F)ccc4F)cc3)cc2[nH]1.Cl | 0 |
| Cc1ccc(-c2ccc3occ(-c4ccc(S(C)=O)cc4)c3c2)nn1 (centres unmarked) | 0 |
| COc1cccc(CC(=O)N2CCc3cc(-c4cn(C)c5ncnc(N)c45)ccc32)c1 | 0 |
| Nc1cccc(-c2ccc3c(N)n[nH]c3c2)c1 | 4 |
| CN(c1ccc(F)c(NC(=O)c2cccc(OC(C)(C)C#N)c2Cl)c1)c1ccc2nc(NC(=O)C3CC3)sc2n1 | 0 |
| CN(c1ccc2c(c1)nc(NCc1ccccc1)n2C)c1ccnc(Nc2ccc(CS(C)(=O)=O)cc2)n1.Cl | 0 |
| CN(c1ccc(NC(=O)N2CCN(CCCN3CCOCC3)CC2)cc1)c1ccnc(Nc2ccc(CS(C)(=O)=O)cc2)n1.Cl | 0 |
| CN(C)c1ncnc2nc[nH]c12 | 26 |
| Cc1ccc(O)cc1Nc1ccnc2cc(-c3ccc(CN4CCCCC4)o3)ccc12 | 0 |
